# Test system: NCI-H226 lung
# Assay method text: NCI-60 one-dose screen, 48 h (100 = growth as untreated, 0 = no growth, -100 = all killed)
# Condition description: 10 µM unless noted
About 83,000 compounds went through this panel and 20% of them were active in at least one assay; those are over-represented in the sample as a whole.
In this scheme, each record receives a class according to its growth; the ranges are bin 0 = under 80%, bin 1 = from 80% up to 90%, bin 2 = 90% and over

Solved cases below.
O=C1OC2C(I)C3CC2C1C3c1ccccc1 (stereo unspecified); bin 2
O=C(NC(Cc1ccccc1)C(=O)CCl)OCc1ccccc1 (stereo unspecified); bin 0
C=CC[N+]1(CCO)CCN=C1CCCCCCCCCCCCC (stereo unspecified); bin 0

Problem: Entry `C/C(Cc1ccc(Cl)cc1)=C(\c1ccc(OCCN2CCCCCC2)cc1)c1ccc(OC(=O)Cc2ccccc2)cc1` belongs to which category?
Result: bin 1

###

# Test system: SK-OV-3 ovarian
# Assay method text: NCI-60 one-dose screen, 48 h (100 = growth as untreated, 0 = no growth, -100 = all killed)
# Condition description: 10 µM unless noted
Compounds without any hit were thinned out: in the full panel of roughly 83,000, 20% have a hit. Calls of active or inactive are those of the source. How the source made its calls: active means growth percent below 10; inactive means the rest.
Measured metric: growth

Sample records with growth:
O=C(CO[N+](=O)[O-])Nc1ccc(C(=O)/C=C/c2ccc(Cl)cc2)cc1; 89.3% (inactive)
COc1ccc(-n2c(C)nc3c(c(C)nn3-c3ccccc3)c2=O)cc1; 45.1% (inactive)
CN1CCCCC1CCN1c2ccccc2Sc2ccc(Br)cc21 (stereo unspecified); 69.6% (inactive)
CNCc1cccc2c1OCCOCCOCCN(C)S(=O)(=O)c1ccc(cc1)-c1cnc(N)c(n1)C(=O)N2; 19.4% (inactive)
O=C(NCc1cccc(C(F)(F)F)c1)[C@H](CCC(=O)N1CCN(C2CCCCC2)CC1)N1C(=O)[C@@H](N2C(=O)OC[C@@H]2c2ccccc2)[C@H]1/C(Cl)=C/c1ccccc1; 56% (inactive)

Problem: Form field: reported growth of COc1ccc(C2Nc3ccccc3-n3cccc32)cc1 (stereo unspecified)
Result: 99.9% (inactive)

Problem: Form field: reported growth of `C/C=C/C(N)=O`
Result: 110% (inactive)

Problem: Form field: reported growth of `COc1cnc2c(c1)C(=O)c1c-2n(CCCN2CCN(C)CC2)c(=O)c2cc([N+](=O)[O-])ccc12`
Result: 86.6% (inactive)

Problem: Form field: reported growth of `O=C(CN1CCOCC1)Nc1ccc(Cn2nnc3c2C(=O)c2nnn(Cc4ccc(NC(=O)CN5CCOCC5)cc4)c2C3=O)cc1`
Result: 0.088% (active)

Problem: Form field: reported growth of `CCN(CC)CCCCNc1ccc(NCCCCN(CC)CC)c2c1C(=O)c1ccccc1C2=O`
Result: 122% (inactive)

###

Listed here are compounds together with their documented growth.
# Test system: M14 melanoma
# Assay method text: NCI-60 one-dose screen, 48 h (100 = growth as untreated, 0 = no growth, -100 = all killed)
# Condition description: 10 µM unless noted
This is part of a sample that, as a whole, favours compounds with a hit. Of some 83,000 tested, about 20% had one in any assay.
Give the quantity in %, number only.

Sample records with growth:
CC/C(=C(\c1ccc(O)cc1)c1ccc(OCCN(C)CCN(C)C(=O)CCCCC(=O)c2c(C)[nH]c(/C=C3\N=C(c4ccc[nH]4)C=C3OC)c2C)cc1)c1ccccc1; 39.7
CS(CCCCN=C=S)=NC(=O)c1c(F)c(F)c(F)c(F)c1F (stereo not drawn); 62.8
COc1ccc(-c2cn3c(-c4ccc(OC)cc4)cnc3c(Oc3ccc4c(C)cc(=O)oc4c3)n2)cc1; 38.6

Problem: Form field: reported growth of `O=C(N/N=C/c1ccc(O)cc1O)c1cccnc1`
Result: 39.3

Problem: Form field: reported growth of `COc1ccc(-c2cc(-c3cccnc3)nc3sc4c(=O)n(-c5ccc(C)cc5)cnc4c23)cc1OC`
Result: 99

Problem: Form field: reported growth of `CC(=O)CC(C)(C)c1ccc(Cl)cc1`
Result: 96.8

Problem: Form field: reported growth of `CN(C)c1ccc(/C=C\C2=[N+](C)c3ccccc3C2(C)C)cc1`
Result: 18

Problem: Form field: reported growth of Cc1cc2c(cc1C)NC1=C(N2)OC(c2c3ccccc3cc3ccccc23)C1=O (stereo not drawn)
Result: 10

###

Listed here are compounds together with their documented growth.
# System: M14 melanoma
# Assay method text: NCI-60 one-dose screen, 48 h (100 = growth as untreated, 0 = no growth, -100 = all killed)
# Condition description: 10 µM unless noted
Compounds without any hit were thinned out: in the full panel of roughly 83,000, 20% have a hit.
Give the quantity in %, number only.

Sample records with growth:
COc1ccc(C/C(C)=C(\c2ccc(OCCN3CCCCCC3)cc2)c2ccc(OC(=O)C3CCCCC3)cc2)cc1; 73.1
O=C(O)c1cn(C2CC2)c2cc(N3CCN(Cc4nc5c(cnn5-c5ccc([N+](=O)[O-])cc5)c(=O)[nH]4)CC3)c(F)cc2c1=O; 102
CC#CC#Cc1cccc(=O)o1; 74.9

Read the next record carefully.
Problem: Form field: reported growth of `Nc1nc2ccc(-c3nc4ccc5[nH]ncc5c4c4c3CCC4)cc2s1`
Result: 29.1

###

# Tested on: SN12C renal
# Assay method text: NCI-60 one-dose screen, 48 h (100 = growth as untreated, 0 = no growth, -100 = all killed)
# Condition description: 10 µM unless noted
About 83,000 compounds went through this panel and 20% of them were active in at least one assay; those are over-represented in the sample as a whole.
Measured metric: growth (%)
Give the quantity in %, number only.

Problem: Value wanted: growth (SN12C renal) of entry `CCCCCCNC(=O)Oc1ccc(/C(=C(\C)c2ccccc2)c2ccc(OCCN(CC)CC)cc2)cc1`
Result: 73

Problem: Value wanted: growth (SN12C renal) of entry CC(=O)OC1Oc2cc(C)c(C)cc2-c2oc(=O)c(-c3cc4ccc(N(C)C)cc4oc3=O)cc21 (stereo not drawn)
Result: 84.2

Problem: Value wanted: growth (SN12C renal) of entry `O=C(Nc1ccc(Nc2cc(Nc3ccccc3)ncn2)cc1)Nc1cc(C(F)(F)F)ccc1F`
Result: 78.5

Problem: Value wanted: growth (SN12C renal) of entry `O=S(=O)(Nc1ccc(Cl)cc1Cl)c1ccc(-c2cnc(C3CC3)o2)cc1`
Result: 51.4

Problem: Value wanted: growth (SN12C renal) of entry `CC/C=C\C[C@H](F)C/C=C1/C(=O)C=C[C@@H]1C/C=C\CCCC(=O)OC`
Result: -14.4

Problem: Value wanted: growth (SN12C renal) of entry `CCOC(=O)c1nc(Nc2cc(C)[nH]n2)c2ccccc2n1`
Result: 97

Problem: Value wanted: growth (SN12C renal) of entry `Cn1cc(-c2csc(-c3cn(C)c4ncccc34)n2)c2ccccc21`
Result: 56.4

Problem: Value wanted: growth (SN12C renal) of entry `CCCCCCCCCC(=O)Oc1ccc(/C(=C(/C)c2ccccc2)c2ccc(OCCN3CCCC3)cc2)cc1`
Result: 44.8

###

# Test system: HOP-62 NSCLC
# Assay method text: NCI-60 one-dose screen, 48 h (100 = growth as untreated, 0 = no growth, -100 = all killed)
# Condition description: 10 µM unless noted
Compounds without any hit were thinned out: in the full panel of roughly 83,000, 20% have a hit.
Quick rule for you: growth under 50% gets label 1, anything else gets label 0.

CCN(C(=O)CN1CCN(c2cc3c(cc2F)c(=O)c(C(=O)O)cn3C2CC2)CC1)c1nc(-c2ccc(OC)cc2)cs1; label 0
Oc1cc(O)c2c(=S)cc(-c3ccc(Cl)cc3)oc2c1; label 1
CN(C)CC(=O)Nc1ccc(Cn2nnc3c2C(=O)c2nnn(Cc4ccc(NC(=O)CN(C)C)cc4)c2C3=O)cc1; label 1
O=C1C2CC=CCC2C(=O)N1CNc1ccc(Cl)cc1 (stereo unspecified); label 0

Problem: Quick check: does O=C1Nc2ccccc2C12CC(c1ccc(Cl)cc1)=NN2 (stereo unspecified) have growth under 50%?
Result: label 0

Problem: Quick check: does `C[C@@H]1CCC2=C(CCC[C@]2(C)C(=O)O)[C@@]1(C)CCc1ccoc1` have growth under 50%?
Result: label 0

###

# Test system: SK-MEL-28 melanoma
# Assay method text: NCI-60 one-dose screen, 48 h (100 = growth as untreated, 0 = no growth, -100 = all killed)
# Condition description: 10 µM unless noted
# Protocol: Growth inhibition of the SK-MEL-28 human tumor cell line is measured as a screen for anti-cancer activity. Cells are grown in 96 well plates and exposed to the test compound for 48 hours. Compounds are tested at a single concentration, which is 10^-5 M for most compounds. The reported endpoint is percent growth (GI% or GIPRCNT), where numbers from 0 - 100% represent growth inhibition, and numbers from -100% - 0 represent cell death. For example, a value of 40 represents 60% growth inhibition. […]
This is part of a sample that, as a whole, favours compounds with a hit. Of some 83,000 tested, about 20% had one in any assay.
Listed here are compounds together with their documented growth.
Give the quantity in %, number only.

Sample records with growth:
CC(=O)C1=C(O)C=C2Oc3c(C(=O)/C=C/c4cc(C(F)(F)F)cc(C(F)(F)F)c4)c(O)c(C)c(O)c3[C@]2(C)C1=O; -72.4
CN(C)c1ccc(/C=C(\C#N)c2nc3ccccc3s2)cc1; 119
CC(=O)Oc1cc2cnc3c4cc(OC(C)=O)c(OC(C)=O)cc4ccc3c2cc1OC(C)=O; 42.7

Problem: Form field: reported growth of `Nc1cc(-c2nc3sccn3c2-c2ccnc(NCCCNS(=O)(=O)c3ccc(F)cc3)n2)ccc1F`
Result: 50.7

Problem: Form field: reported growth of `CCCCCCCCCCCCCC1=NCCN1CCO`
Result: 115

Problem: Form field: reported growth of `Cc1cc(Nc2nc(-c3cccnc3)nc3ccccc23)n[nH]1`
Result: 50.5

Problem: Form field: reported growth of `Cc1ccc(Nc2nc(N)nc(Nc3ccc4ccccc4c3)n2)cc1`
Result: 62
